The measurements presented in this section are drawn from patent US20090012085A1.

- PROTOCOL: Phase I dose-escalating study, plasma pharmacokinetics in patients with solid tumor
- Format: in vivo, human
- CONDITION_SET: human, plasma, 200 mg, 200 mg QD 4/1 (n = 5), nominal time 24 h; read-out: Mean plasma concentration following the last dose on cycle 1 day 28
RECORDED_METRIC: concentration at 24 h (ng/mL)
# unit: ng/mL | format: bare number

Fill blank: measured concentration at 24 h of the compound Cc1[nH]c(/C=C2\C(=O)Nc3ccc(F)cc32)c(C)c1C(=O)NC[C@H](O)CN1CCOCC1 is ____.
259

###

- PROTOCOL: Phase I dose-escalating study, plasma pharmacokinetics in patients with solid tumor
- Assay type: in vivo, human
- CONDITION_SET: human, plasma, oral, 100 mg, 100 mg QD Continuous (n = 4), nominal time 12 h; read-out: Mean plasma concentration following the last dose on cycle 1 day 28
RECORDED_METRIC: concentration at 12 h (ng/mL)
Write the answer as a number in ng/mL, unit excluded.

Record request: concentration at 12 h value, item Cc1[nH]c(/C=C2\C(=O)Nc3ccc(F)cc32)c(C)c1C(=O)NC[C@H](O)CN1CCOCC1
377

###

- PROTOCOL: Phase I dose-escalating study, plasma pharmacokinetics in patients with solid tumor
- Type: in vivo, human
- CONDITION_SET: human, plasma, 150 mg, 150 mg QD 4/1 (n = 5), nominal time 1 h; read-out: Mean plasma concentration following the last dose on cycle 1 day 28
RECORDED_METRIC: concentration at 1 h (ng/mL)
Write down the numeric answer in ng/mL and omit the unit.

Item under review: Cc1[nH]c(/C=C2\C(=O)Nc3ccc(F)cc32)c(C)c1C(=O)NC[C@H](O)CN1CCOCC1 . Reported concentration at 1 h?
184

###

- PROTOCOL: Phase I dose-escalating study, plasma pharmacokinetics in patients with solid tumor
- Format: in vivo, human
- CONDITION_SET: human, plasma, 250 mg, 250 mg QD 4/1 (n = 6), nominal time 0 h; read-out: Mean plasma concentration following the last dose on cycle 1 day 28
RECORDED_METRIC: concentration at 0 h (µg/mL)
Reply with just the number (in µg/mL).

Bench note: what concentration at 0 h did Cc1[nH]c(/C=C2\C(=O)Nc3ccc(F)cc32)c(C)c1C(=O)NC[C@H](O)CN1CCOCC1 [compound 1] show?
0.0645

###

- PROTOCOL: Phase I dose-escalating study, plasma pharmacokinetics in patients with solid tumor
- Format: in vivo, human
- CONDITION_SET: human, plasma, oral, 200 mg, 200 mg QD 4/1 (n = 5), nominal time 12 h; read-out: Mean plasma concentration following the last dose on cycle 1 day 28
RECORDED_METRIC: concentration at 12 h (ng/mL)
Unit ng/mL implied. Number only.

Report concentration at 12 h for Cc1[nH]c(/C=C2\C(=O)Nc3ccc(F)cc32)c(C)c1C(=O)NC[C@H](O)CN1CCOCC1 please.
355

###

- PROTOCOL: Phase I dose-escalating study, plasma pharmacokinetics in patients with solid tumor
- Assay type: in vivo, human
- CONDITION_SET: human, plasma, oral, 150 mg QD, 150 mg QD 4/1 (n = 5), nominal time 12 h; read-out: Mean plasma concentration following the last dose on cycle 1 day 28
RECORDED_METRIC: concentration at 12 h
Answer format: number, then unit.

What value of concentration at 12 h has been reported for the following molecule? Cc1[nH]c(/C=C2\C(=O)Nc3ccc(F)cc32)c(C)c1C(=O)NC[C@H](O)CN1CCOCC1 [compound 1]
91.3 ng/mL
